- System Name: Tubulin alpha chain (Sus scrofa)
- Sequence (P02550 whole entry, looked up): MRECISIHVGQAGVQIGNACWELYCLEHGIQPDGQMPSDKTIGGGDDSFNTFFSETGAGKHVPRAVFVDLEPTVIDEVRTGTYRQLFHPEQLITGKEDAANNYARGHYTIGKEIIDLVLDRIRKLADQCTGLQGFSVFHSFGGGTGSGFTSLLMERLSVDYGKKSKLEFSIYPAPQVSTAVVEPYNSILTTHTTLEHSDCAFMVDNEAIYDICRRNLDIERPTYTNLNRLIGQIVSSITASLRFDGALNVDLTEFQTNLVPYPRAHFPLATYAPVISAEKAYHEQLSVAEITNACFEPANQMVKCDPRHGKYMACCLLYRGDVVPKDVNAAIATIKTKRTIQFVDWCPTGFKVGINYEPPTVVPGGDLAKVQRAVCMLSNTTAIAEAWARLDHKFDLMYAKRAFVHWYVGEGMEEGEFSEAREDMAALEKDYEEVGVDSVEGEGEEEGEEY
- Assay Summary: Evaluated for the inhibitory concentration against porcine brain tubulin polymerization
Measurement Type: log10 of IC50 (log10 of the value in µM)
Base-10 log of IC50, unit µM.

Hello, I am looking for reported log10 of IC50 with Tubulin alpha chain (Sus scrofa) for `CCN(Cc1cc(OC)c(OC)c(OC)c1)c1ccc(OC)c(O)c1` . Could you help?
1.18

Hello, I am looking for reported log10 of IC50 with Tubulin alpha chain (Sus scrofa) for `CCCCCCN(Cc1cc(OC)c(OC)c(OC)c1)c1ccc(OC)c(O)c1` . Could you help?
1.30

Hello, I am looking for reported log10 of IC50 with Tubulin alpha chain (Sus scrofa) for `COc1ccc(N(CCCCCO)Cc2cc(OC)c(OC)c(OC)c2)cc1O` . Could you help?
1.30

Hello, I am looking for reported log10 of IC50 with Tubulin alpha chain (Sus scrofa) for `CCCN(Cc1cc(OC)c(OC)c(OC)c1)c1ccc(OC)c(O)c1` . Could you help?
0.73

Hello, I am looking for reported log10 of IC50 with Tubulin alpha chain (Sus scrofa) for `COc1ccc(NCc2cc(OC)c(OC)c(OC)c2)cc1O` . Could you help?
2.00

Hello, I am looking for reported log10 of IC50 with Tubulin alpha chain (Sus scrofa) for `COc1ccc(N(CCCC(=O)O)Cc2cc(OC)c(OC)c(OC)c2)cc1O` . Could you help?
1.60

Hello, I am looking for reported log10 of IC50 with Tubulin alpha chain (Sus scrofa) for `CCCCN(Cc1cc(OC)c(OC)c(OC)c1)c1ccc(OC)c(O)c1` . Could you help?
0.88
